- TEST SYSTEM: Solute carrier organic anion transporter family member 1B3 (Homo sapiens, UniProt Q9NPD5)
- Sequence (Q9NPD5 whole entry): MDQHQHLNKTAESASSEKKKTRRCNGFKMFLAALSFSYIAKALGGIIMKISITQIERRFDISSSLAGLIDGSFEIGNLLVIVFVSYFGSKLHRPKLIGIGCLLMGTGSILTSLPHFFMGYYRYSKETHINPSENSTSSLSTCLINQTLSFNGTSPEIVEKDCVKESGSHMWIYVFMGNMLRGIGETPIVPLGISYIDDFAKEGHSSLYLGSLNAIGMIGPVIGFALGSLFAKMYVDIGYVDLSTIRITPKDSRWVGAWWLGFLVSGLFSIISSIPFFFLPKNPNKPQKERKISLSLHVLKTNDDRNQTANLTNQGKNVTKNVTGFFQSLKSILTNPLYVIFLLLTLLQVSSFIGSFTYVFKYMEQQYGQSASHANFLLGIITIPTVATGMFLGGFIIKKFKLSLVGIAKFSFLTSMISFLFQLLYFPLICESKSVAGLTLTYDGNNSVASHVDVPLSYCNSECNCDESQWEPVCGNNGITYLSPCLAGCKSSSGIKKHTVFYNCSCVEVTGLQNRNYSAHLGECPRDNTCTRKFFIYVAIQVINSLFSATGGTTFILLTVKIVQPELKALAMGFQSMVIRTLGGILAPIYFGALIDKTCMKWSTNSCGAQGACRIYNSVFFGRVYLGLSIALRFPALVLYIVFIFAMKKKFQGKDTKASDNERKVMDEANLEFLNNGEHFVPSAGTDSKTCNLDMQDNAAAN
- EXPERIMENT NOTES: Inhibition of human OATP1B3-mediated [3H]CCK-8 at 100 uM after 5 mins relative to control
- Format: ADME
READOUT KIND: inhibition (INH) (%)
Report only the number, with the unit % understood.

In the examples that follow, each entry is paired with its recorded inhibition (INH).
Inquiry: I am curious: what inhibition (INH) value has been reported for C[C@]12C=CC(=O)C=C1CC[C@@H]1[C@@H]2C(=O)C[C@@]2(C)[C@H]1CC[C@]2(O)C(=O)CO ?
Reply text: 12.5

Inquiry: I am curious: what inhibition (INH) value has been reported for O=C1c2c(O)ccc(O)c2C(=O)c2c(NCCNCCO)ccc(NCCNCCO)c21 ?
Reply text: 84.4

Inquiry: I am curious: what inhibition (INH) value has been reported for CC[C@]1(O)C[C@H]2CN(CCc3c([nH]c4ccccc34)[C@@](C(=O)OC)(c3cc4c(cc3OC)N(C=O)[C@H]3[C@@](O)(C(=O)OC)[C@H](OC(C)=O)[C@]5(CC)C=CCN6CC[C@]43[C@@H]65)C2)C1 ?
Reply text: 65.1

Inquiry: I am curious: what inhibition (INH) value has been reported for CC(=O)O[C@H]1C(=O)[C@@]2(C)[C@H]([C@H](OC(=O)c3ccccc3)[C@]3(O)C[C@H](OC(=O)[C@H](O)[C@@H](NC(=O)c4ccccc4)c4ccccc4)C(C)=C1C3(C)C)[C@]1(OC(C)=O)CO[C@@H]1C[C@@H]2O ?
Reply text: 94.4

Inquiry: I am curious: what inhibition (INH) value has been reported for COc1cccc2c1C(=O)c1c(O)c3c(c(O)c1C2=O)C[C@@](O)(C(=O)CO)C[C@@H]3O[C@H]1C[C@H](N)[C@H](O)[C@H](C)O1 ?
Reply text: 53.6

Inquiry: I am curious: what inhibition (INH) value has been reported for O=C(O)CCCc1ccc(N(CCCl)CCCl)cc1 ?
Reply text: 66

***
Inquiry: I am curious: what inhibition (INH) value has been reported for CCc1c2c(nc3ccc(OC(=O)N4CCC(N5CCCCC5)CC4)cc13)-c1cc3c(c(=O)n1C2)COC(=O)[C@]3(O)CC ?
Reply text: 34.3

Inquiry: I am curious: what inhibition (INH) value has been reported for Cn1c(CCCC(=O)O)nc2cc(N(CCCl)CCCl)ccc21 ?
Reply text: 48.8

Inquiry: I am curious: what inhibition (INH) value has been reported for CC[C@]1(O)C[C@@H]2CN(CCc3c([nH]c4ccccc34)[C@@](C(=O)OC)(c3cc4c(cc3OC)N(C)[C@H]3[C@@](O)(C(=O)OC)[C@H](OC(C)=O)[C@]5(CC)C=CCN6CC[C@]43[C@@H]65)C2)C1 ?
Reply text: 81.5

Hello, the source for this data is ChEMBL document CHEMBL3407465, in case you need it.
